Just for reference, ChEMBL document CHEMBL3414467 is where these values come from.

assay target: Adenosine receptor A3 (Homo sapiens, UniProt P0DMS8)
Sequence (P0DMS8 whole entry): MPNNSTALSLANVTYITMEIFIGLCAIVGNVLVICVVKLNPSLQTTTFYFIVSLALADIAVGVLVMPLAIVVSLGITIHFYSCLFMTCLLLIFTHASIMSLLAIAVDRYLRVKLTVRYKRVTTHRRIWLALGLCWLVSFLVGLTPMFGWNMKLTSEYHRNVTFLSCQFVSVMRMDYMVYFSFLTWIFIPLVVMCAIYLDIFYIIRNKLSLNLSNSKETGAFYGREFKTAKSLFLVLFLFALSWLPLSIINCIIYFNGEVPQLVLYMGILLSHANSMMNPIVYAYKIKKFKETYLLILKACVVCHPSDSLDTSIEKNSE
assay method text: Displacement of [125I]AB-MECA from human adenosine A3 receptor expressed in CHO cell membranes incubated for 120 mins by scintillation counting method
Each item that follows carries a reported pKi.
Here pKi is given on a logarithmic scale as minus log10 of the concentration in mol/L.

Solved entries (count: 6):
[
  {
    "molecular string": "Cc1nc2sc(-c3ccccc3)nc2c(=O)[nH]1",
    "assay target": "Adenosine receptor A3 (Homo sapiens, UniProt P0DMS8)",
    "pKi": 7.07
  },
  {
    "molecular string": "Cc1nc2sc(-n3cccc3)nc2c(=O)[nH]1",
    "assay target": "Adenosine receptor A3 (Homo sapiens, UniProt P0DMS8)",
    "pKi": 6.64
  },
  {
    "molecular string": "Cc1nc2sc(-c3cccc(F)c3)nc2c(=O)[nH]1",
    "assay target": "Adenosine receptor A3 (Homo sapiens, UniProt P0DMS8)",
    "pKi": 6.96
  },
  {
    "molecular string": "COc1ccc(-c2nc3c(=O)[nH]c(C)nc3s2)cc1",
    "assay target": "Adenosine receptor A3 (Homo sapiens, UniProt P0DMS8)",
    "pKi": 7.42
  },
  {
    "molecular string": "COc1cccc(Nc2nc3c(=O)[nH]c(C)nc3s2)c1",
    "assay target": "Adenosine receptor A3 (Homo sapiens, UniProt P0DMS8)",
    "pKi": 6.95
  },
  {
    "molecular string": "CCOc1nc(C)nc2sc(Nc3cccc(OC)c3)nc12",
    "assay target": "Adenosine receptor A3 (Homo sapiens, UniProt P0DMS8)",
    "pKi": 6.96
  }
]

Prompt: Please provide the recorded pKi for Cc1nc2sc(Cc3ccccc3)nc2c(=O)[nH]1 , tested on Adenosine receptor A3 (Homo sapiens, UniProt P0DMS8).
Completion: 6.37

###

assay target: Adenosine receptor A3 (Homo sapiens) (UniProt P0DMS8)
Sequence (whole entry): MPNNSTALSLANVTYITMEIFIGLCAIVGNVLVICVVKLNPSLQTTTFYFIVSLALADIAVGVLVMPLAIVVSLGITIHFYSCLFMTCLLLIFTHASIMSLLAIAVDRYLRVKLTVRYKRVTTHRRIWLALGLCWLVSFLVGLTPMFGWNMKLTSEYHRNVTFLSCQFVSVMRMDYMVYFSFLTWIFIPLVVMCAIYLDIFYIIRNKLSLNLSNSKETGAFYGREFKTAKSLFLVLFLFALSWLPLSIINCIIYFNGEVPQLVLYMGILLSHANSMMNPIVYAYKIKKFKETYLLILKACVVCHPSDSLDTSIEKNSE
assay method text: Displacement of [125I]AB-MECA from human adenosine A3 receptor expressed in CHO cell membranes at 1 uM incubated for 120 mins by scintillation counting method
readout type: inhibition
For clarity, give the value followed by its unit.

[
  {
    "molecular string": "Cc1nc2sc(-c3ccc(O)cc3)nc2c(=O)[nH]1",
    "assay target": "Adenosine receptor A3 (Homo sapiens) (UniProt P0DMS8)",
    "readout type": "inhibition",
    "measurement": "15%"
  },
  {
    "molecular string": "Cc1nc2sc(-c3ccco3)nc2c(=O)[nH]1",
    "assay target": "Adenosine receptor A3 (Homo sapiens) (UniProt P0DMS8)",
    "readout type": "inhibition",
    "measurement": "20%"
  },
  {
    "molecular string": "Cc1nc2sc(Nc3ccc(Cl)cc3)nc2c(=O)[nH]1",
    "assay target": "Adenosine receptor A3 (Homo sapiens) (UniProt P0DMS8)",
    "readout type": "inhibition",
    "measurement": "49%"
  }
]

Prompt: GET /values?readout=inhibition&item= Cc1nc2sc(-c3ccncc3)nc2c(=O)[nH]1
Completion: 15%

Prompt: What about Cc1ccc(Nc2nc3c(=O)[nH]c(C)nc3s2)cc1 ?
Completion: 47%

Prompt: What about Cc1nc2sc(-c3ccc(C(F)(F)F)cc3)nc2c(=O)[nH]1 ?
Completion: 32%

Prompt: What about Cc1nc2sc(-c3cccnc3)nc2c(=O)[nH]1 ?
Completion: 33%

Prompt: What about Cc1nc2sc(Nc3cccc(Cl)c3)nc2c(=O)[nH]1 ?
Completion: 48%

Prompt: What about CCOc1nc(C)nc2sc(Nc3ccccc3)nc12 ?
Completion: 45%

Prompt: What about Cc1nc2sc(-c3ccc(C(=O)O)cc3)nc2c(=O)[nH]1 ?
Completion: 1%

Prompt: What about Cc1nc2sc(Nc3ccccc3)nc2c(=O)[nH]1 ?
Completion: 45%

Prompt: What about CCOc1nc(C)nc2sc(-c3ccc(Cl)cc3)nc12 ?
Completion: 10%
